All values here come from patent US20230144608A1.

- TEST_SYSTEM: MMP-7 (Homo sapiens, UniProt P09237)
- Sequence (P09237 95-267): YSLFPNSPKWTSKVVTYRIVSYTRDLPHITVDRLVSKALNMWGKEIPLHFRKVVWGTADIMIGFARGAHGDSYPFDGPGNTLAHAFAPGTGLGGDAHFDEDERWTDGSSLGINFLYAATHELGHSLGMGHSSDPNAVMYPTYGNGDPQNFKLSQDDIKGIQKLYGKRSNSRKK
- ASSAY_METHOD_TEXT: Cleavage by recombinant protease MMP-7
- Type: biochemical
- TEST_SETTINGS: initial rate, recombinant MMP-7
QUANTITY_MEASURED: Rates of cleavage by recombinant proteases, MMP-7 (µM/h)

1. APAGLIVPYN [proteolytically cleavable peptide (CP), protease substrate] | 2.4

1. IVGRPRHQGV [proteolytically cleavable peptide (CP), protease substrate]
2. PANLVAPDP [proteolytically cleavable peptide (CP), protease substrate]
Ask: Hi, I'm comparing two records. Which one has the lower Rates of cleavage by recombinant proteases, MMP-7, 1 or 2 ? Reply with the label of the item you choose.
Reply: 1

====

- Test system: H&N tumor conditioned media (TCM) and plasma
- ASSAY_METHOD_TEXT: Fluorescence-quencher peptide cleavage screening, H&N tumor conditioned media versus plasma
- Format: biochemical, human
- TEST_SETTINGS: Head and Neck cancer patients; fluorophore/quencher-labelled peptide
QUANTITY_MEASURED: Initial cleavage rate difference, tumor conditioned media minus plasma (pmol/min)
Numbers only; they are read as pmol/min.

1) APAGLIVPYN [proteolytically cleavable peptide (CP), protease substrate] | 0.1
2) PVSLRSGS [proteolytically cleavable peptide (CP), protease substrate] | 0.0
3) TQKPLGLS [proteolytically cleavable peptide (CP), protease substrate] | 0.2
4) IVGRPRHQGV [proteolytically cleavable peptide (CP), protease substrate] | 0.1
5) RSKYLATA [proteolytically cleavable peptide (CP), protease substrate] | 0.0

Ask: Can you look up the measured Initial cleavage rate difference, tumor conditioned media minus plasma of RPLALWRS [proteolytically cleavable peptide (CP), protease substrate] for me?
Reply: 0.0

Ask: Can you look up the measured Initial cleavage rate difference, tumor conditioned media minus plasma of PANLVAPDP [proteolytically cleavable peptide (CP), protease substrate] for me?
Reply: 0.4

====

- TEST_SYSTEM: CatB (Homo sapiens, UniProt P07858)
- ASSAY_METHOD_TEXT: Cleavage by recombinant protease Cathepsin B
- Assay type: biochemical
- TEST_SETTINGS: initial rate
QUANTITY_MEASURED: Rates of cleavage by recombinant proteases, CatB (µM/h)

1. IVGRPRHQGV [proteolytically cleavable peptide (CP), protease substrate] | 1.9
2. PVSLRSGS [proteolytically cleavable peptide (CP), protease substrate] | 0.0
3. RSKYLATA [proteolytically cleavable peptide (CP), protease substrate] | 1.9

P. RPLALWRS [proteolytically cleavable peptide (CP), protease substrate]
Q. APAGLIVPYN [proteolytically cleavable peptide (CP), protease substrate]
Ask: Which numeric Rates of cleavage by recombinant proteases, CatB is bigger, that of P or that of Q ? Reply with the label of the item you choose.
Reply: Q
(Q: 1.0 µM/h, P: 0.3 µM/h)

I. TQKPLGLS [proteolytically cleavable peptide (CP), protease substrate]
II. PANLVAPDP [proteolytically cleavable peptide (CP), protease substrate]
Ask: Which numeric Rates of cleavage by recombinant proteases, CatB is bigger, that of I or that of II ? Reply with the label of the item you choose.
Reply: I
